Molecular target: SARS-CoV-2 S protein on live SARS-CoV-2-mNG reporter virus (SARS-CoV-2, UniProt P0DTC2 14-1273)
Assay: cell-based or functional assay
quantity-measured: NC50 (neutralisation of reporter SARS-CoV-2, Vero E6 cells) (µg/mL)
# output: bare number, implied unit µg/mL

Past entries and their recorded results:
binder	unit-symbol	readout-number
CoV2-29 (antibody, V domains shown) VH: QVQLVESGGGLVQPGGSLRLSCAASGFTFSSYWMSWVRQAPGKGLEWVANIKQDGSEKYYVDSVKGRFTISRDNAKNSLYLQMNSLRAEDTAVYYCARMADDDFWRDLPGFYMDVWGKGTTVTVSS VL: QAVVTQPASVSGSPGQSITISCTGTSSDVGGYNYVSWYQQHPGKAPKLMIYDVSNRPSGVSNRFSGSKSGNTASLTISGLQAEDEADYYCSSYTSSSTLVFGGGTKVTVL	µg/mL	1.13
CoV2-17 (antibody, V domains shown) VH: QVELVESGGGLVKPGGSLRLSCAASGFTFSSYSMNWVRQAPGKGLEWVSSISSSSSYIYYADSVKGRFTISRDNAKNSLYLQMNSLRAEDTAVYYCARGNVDIVATGEVDAFDIWGQGTMVSVSS VL: QAVVTQPPSASGTLGQRVTISCSGSSSTIGSNYVYWYQQLPGTAPKLLIYRNNQRPSGVPDRFSGSKSGTSASLAISGLRSEDEADYYCAAWDDSLSGYVFGTGTQLTVL	µg/mL	2.49

### Prompt Returns the measured NC50 (neutralisation of reporter SARS-CoV-2, Vero E6 cells) for the input binder. Input: CoV2-09 (antibody, V domains shown) VH: QVQLHQWGAGLLKPSETLSRTCAVYGGSFSGYYWTWIRQAPGKGLEWIGEINHGGSTRYNPSLESRVSISVDTSKKQFSLELRSVTAADTAIYYCARGYDTNWYGDGYNWFDPWDRGTLVTVSS VL: QSALTQDPSVSVALGQTVRITCQGDSLRGSFASWYRQKPGQAPVLVIFGINNRPSGVPDRFSGSSSGNTASLTITGAQAEDEADYYCNSRESNSNRILFGGGTKVTVL
### Response 0.66
